- Test system: C2A
- protocol_text: qHTS profiling for inhibitors of Plasmodium falciparum proliferation (AID 504749); also: nearly all actives have a fitted effect of over 60% in size
- condition_label: P. falciparum in erythrocytes, SYBR Green DNA, 72 h; series mostly up to 28.7 µM
Inconclusive results are not listed. The source made the active and inactive calls. Calls follow the shape of the dose curve; as a rule, active = well fitted inhibition curve with a large enough effect; inconclusive = small, poorly fitted or top-dose-only effect; inactive = flat fitted curve, though single readings scatter.
Choose the fitting class; nothing outside label 1 (active), label 0 (inactive) is accepted.

Q) Please state the recorded outcome for this compound: "Nc1c2c(nc3ccccc13)CCCC2"
A) label 0

Q) Hi, do you know how Clc1ccc(C(c2ccccc2Cl)C(Cl)Cl)cc1 (stereo not given) came out in this test?
A) label 0

Q) Query: recorded result category for "OCCN1CCN(CCCN2c3ccccc3Sc3ccc(C(F)(F)F)cc32)CC1" in this test
A) label 1

Q) How did this test come out for "CCC1(c2ccccc2)C(=O)NCNC1=O" ?
A) label 0

Q) Check the results log: what was the call for "COc1ccc2[nH]cc(CCNC(C)=O)c2c1" ?
A) label 0

Q) Entry "Cc1ccc(C(=O)Nc2ccc(S(=O)(=O)O)c3cc(S(=O)(=O)O)cc(S(=O)(=O)O)c23)cc1NC(=O)c1cccc(NC(=O)Nc2cccc(C(=O)Nc3cc(C(=O)Nc4ccc(S(=O)(=O)O)c5cc(S(=O)(=O)O)cc(S(=O)(=O)O)c45)ccc3C)c2)c1" : call = ?
A) label 0

Q) Would you mind telling me which call this test gave COc1ccccc1OCC(O)CN1CCN(CC(=O)Nc2c(C)cccc2C)CC1 (stereo not given) ?
A) label 0

Q) Fill in: this test's call for "O=c1c(-c2ccc(O)cc2)coc2cc(O)cc(O)c12" is ___
A) label 0

Q) Could you check what this test reported for "CN(C)CCC=C1c2ccccc2C=Cc2ccccc21" ?
A) label 0

Q) // outcome(item) with item = "O=C(c1ccc(OCCN2CCCCC2)cc1)c1c(-c2ccc(O)cc2)sc2cc(O)ccc12"
A) label 1

====

- protocol_text: Quantitative High-Throughput drug screen in 47 multiple myeloma cell lines against the NCATS MIPE library collection: MM1R_ATCC cell viability assay (AID 1918981); also: nearly all actives have a fitted effect of over 35% in size
- condition_label: MM1R multiple myeloma cells, CellTiter-Glo viability, 48 h; series mostly up to 45.8 µM
Results filed as inconclusive are left out. The source made the active and inactive calls. Calls come from the whole dose curve; as a rule, active = well fitted cell-killing curve with a large enough effect; inconclusive = small, poorly fitted or top-dose-only effect, or effect the other way; inactive = no such curve, though single readings can be large or run the other way.
Reply using exactly one outcome from 1 for active, 0 for inactive

Q) Given CCCNCC(O)COc1ccccc1C(=O)CCc1ccccc1 (stereo not drawn) , state the outcome it received in this test.
A) 0

Q) GET /call?item= "COc1ccc2[nH]cc(CCNC(C)=O)c2c1" returns the recorded outcome of this test.
A) 1

Q) Outcome logged for CC1(CN2CCC(n3c(=O)[nH]c4ccccc43)CC2)OCc2ccccc2-n2cccc21 (stereo not drawn) in this assay:
A) 1

Q) What was the test verdict on "CC[N+](CC)(CC)CCOc1cccc(OCC[N+](CC)(CC)CC)c1OCC[N+](CC)(CC)CC" ?
A) 0

Q) Hi, sorry to bother you, what did the test record for CC(C)(Oc1ccc(C2CC2(Cl)Cl)cc1)C(=O)O (stereo not drawn) ?
A) 1

Q) Per the assay record, what outcome was assigned to "CCOC(=O)c1ncn2c1CN(C)C(=O)c1cc(F)ccc1-2" ?
A) 1

Q) Just curious, what result did "O=C(c1ccc(F)cc1)C1CCN(CCn2c(=O)[nH]c3ccccc3c2=O)CC1" get here?
A) 0

Q) Check the results log: what was the call for "CN1CCN(CCCN2c3ccccc3Sc3ccc(Cl)cc32)CC1" ?
A) 1

Q) # outcome recorded in this test, key = "Cn1c(=O)c2c(ncn2C)n(C)c1=O"
A) 0

Q) Any idea what this test logged for "CN(CCOc1ccc(NS(C)(=O)=O)cc1)CCc1ccc(NS(C)(=O)=O)cc1" ?
A) 0

Q) Recorded test call requested for CC(C)NCC(O)c1ccc(O)c(O)c1 (stereo not drawn)
A) 1

Q) What did this assay record as the result for "COc1cc2nc(N3CCN(C(=O)c4ccco4)CC3)nc(N)c2cc1OC" ?
A) 1

Q) I would be grateful if you could indicate the recorded call for "NC(=O)OCC(COC(N)=O)c1ccccc1" .
A) 0

Q) Tell me the assay call for "O=C(CCCN1CCC(O)(c2ccc(Cl)cc2)CC1)c1ccc(F)cc1" please.
A) 0

Q) // return assay outcome for "CS(=O)(=O)CCNCc1ccc(-c2ccc3ncnc(Nc4ccc(OCc5cccc(F)c5)c(Cl)c4)c3c2)o1"
A) 1

Q) For "CC#C[C@]1(O)CC[C@H]2[C@@H]3CCC4=CC(=O)CCC4=C3[C@@H](c3ccc(N(C)C)cc3)C[C@@]21C" , which call appears in the assay record?
A) 1

Q) Hi, sorry to bother you, what did the test record for Cc1ccccc1N1C(=O)c2cc(S(N)(=O)=O)c(Cl)cc2NC1C (stereo not drawn) ?
A) 0

Q) Which outcome was entered for the molecule "NCCc1cnc[nH]1" in this test?
A) 1

Q) Could you please tell me the result logged for O=C(C1CCCCC1)N1CC(=O)N2CCc3ccccc3C2C1 (stereo not drawn) in this assay?
A) 0

Q) Record request — test call for "CC(C)C(=O)Nc1ccc([N+](=O)[O-])c(C(F)(F)F)c1"
A) 1

Q) Could you check what this test reported for "CN(C)c1nc(N(C)C)nc(N(C)C)n1" ?
A) 0

Q) Could you kindly confirm the outcome this assay logged for "COc1nc(C)nc(Cl)c1NC1=NCCN1" ?
A) 0

Q) Identify the outcome logged in this assay for the molecule shown: CC(C)NCC(O)COc1ccc(CCOCC2CC2)cc1 (stereo not drawn)
A) 0

Q) What did the test return for "CC[C@@]1(O)C(=O)OCc2c1cc1n(c2=O)Cc2cc3c(CN(C)C)c(O)ccc3nc2-1" ?
A) 1

Q) For "N[C@@H](Cc1c[nH]c2ccc(O)cc12)C(=O)O" , what call appears in the results of this test?
A) 0

Q) Recorded call for "NCCCCCC(=O)O" ?
A) 0

Q) Check the results log: what was the call for "COc1ccc2c(c1)c(CC(=O)O)c(C)n2C(=O)c1ccc(Cl)cc1" ?
A) 0

Q) // return assay outcome for CC(C)Cc1ccc(C(C)C(=O)O)cc1 (stereo not drawn)
A) 0

Q) Any idea what this test logged for CCN1CCCC1CNC(=O)c1cc(S(=O)(=O)CC)c(N)cc1OC (stereo not drawn) ?
A) 0

Q) Hi, sorry to bother you, what did the test record for "CN1CCN(C2=Nc3cc(Cl)ccc3Nc3ccccc32)CC1" ?
A) 0

Q) Test call for this molecule, please: "Cn1ccc2cc3c(cc21)CCN3C(=O)Nc1cccnc1"
A) 0

Q) Can you look up the reported call for "Cn1cnc2c1c(=O)[nH]c(=O)n2C" for me?
A) 1

Q) Give the logged outcome of this assay for the following molecule: "NCCS(=O)(=O)O"
A) 0

Q) Recorded call for "CN(C)C(=N)N=C(N)N" ?
A) 0

Q) # lookup: test call for "C[C@@H]1CC(=O)NN=C1c1ccc(NN=C(C#N)C#N)cc1"
A) 1

Q) Hi team, can someone confirm the assay call for "Cc1cc(C(C)(C)C)c(O)c(C)c1CC1=NCCN1" ?
A) 0

Q) Assay outcome for CC(C(=O)O)c1cccc(C(=O)c2ccccc2)c1 (stereo not drawn) : what was it?
A) 1

Q) What did this assay record as the result for "Cc1cc(C(C)(C)C)cc(C)c1CC1=NCCN1" ?
A) 0

Q) Name the outcome recorded for COc1cc2nc(N3CCN(C(=O)C4COc5ccccc5O4)CC3)nc(N)c2cc1OC (stereo not drawn) in the assay.
A) 1

Q) Each molecule tested received a call. Report the one for "O=C1c2c(O)ccc(O)c2C(=O)c2c(NCCNCCO)ccc(NCCNCCO)c21" .
A) 1

Q) Tell me the recorded outcome of this test for CCC1(C)CC(=O)NC1=O (stereo not drawn) .
A) 0

Q) Recorded test outcome, item "O=C1N(c2ccccc2)c2ccccc2C1(Cc1ccncc1)Cc1ccncc1"
A) 1

Q) Hi team, can someone confirm the assay call for "Nc1nc2c(ncn2COC(CO)CO)c(=O)[nH]1" ?
A) 1

Q) What classification did COc1ccccc1OCC(O)CN1CCN(CC(=O)Nc2c(C)cccc2C)CC1 (stereo not drawn) end up with in this test?
A) 0

Q) State the result this test recorded for "Cc1ccc(-c2cc(C(F)(F)F)nn2-c2ccc(S(N)(=O)=O)cc2)cc1" .
A) 1

Q) Which outcome was assigned to "COC(=O)Nc1nc2ccc(C(=O)c3cccs3)cc2[nH]1" in this test?
A) 1

Q) Could you kindly confirm the outcome this assay logged for COc1ccc(C2CNC(=O)C2)cc1OC1CCCC1 (stereo not drawn) ?
A) 0

Q) Field: outcome | Entry: "CS(=O)(=O)Nc1ccc([N+](=O)[O-])cc1Oc1ccccc1"
A) 1
